B1: CPEB3 Ribozyme (parent)
chain: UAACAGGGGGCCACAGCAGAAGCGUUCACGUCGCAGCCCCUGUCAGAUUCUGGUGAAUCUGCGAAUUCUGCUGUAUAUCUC

variants of: B1; assay: self-cleavage, relative activity (ratio to wild type); higher = more cleavage; in vitro, sequencing
Classification field: true = self-cleavage at or over 0.3; false = self-cleavage under 0.3.

Illustrative cases are given below, each with its answer.
G10A U25C: false
G8A A18G: false
A5C U69C: true
C4G A13C: true
U66G U80A: true

Could you tell me if the measured self-cleavage of C32A A75U reaches 0.3 or more?
false

Could you tell me if the measured self-cleavage of A45U A77U reaches 0.3 or more?
true
